test system: NCI-H226 lung; assay: NCI tumour cell line growth inhibition, 48 h
Reported TGI by item:

Below, 6 compounds whose answers are already recorded.
- Cc1nc(C(N)=S)sc1C(=O)/C=C/c1c(O)ccc2ccccc12: > 100 µM
- COC1CC(OC2CCC3(C)C(=CCC4C3C(OC(C)=O)C(OC(=O)CC(C)C)C3(C)C(C(C)=O)CCC43O)C2)OC(C)C1OC1CC(OC)C(OC2CC(OC)C(OC3OC(C)C(OC4OC(CO)C(O)C(O)C4O)C(OC)C3O)C(C)O2)C(C)O1 (configuration not stated): > 75 µM
- CC(=O)c1ccc2c(c1)CC1(C2)Cc2ccccc2C1=O (configuration not stated): > 100 µM
- CN(C)C(=S)/N=c1\ssc(=S)n1Cc1ccncc1: > 100 µM
- C\C(=N/N=C1/C(=C\N(C)C)C(=O)NC(=O)N1C)c1ccc(Cl)cc1: > 100 µM
- Cc1c2c(OCC3CCCCO3)nn(C)c(=O)c2c(C)n1-c1ccccc1 (configuration not stated): 42.7 µM

Below: the item to evaluate.
Give NCI-H226 lung TGI for O=c1cc(-c2ccccc2)oc2c(-c3cc(Cl)cc4c(=O)cc(-c5ccccc5)oc34)cc(Cl)cc12
83 µM

* * *

test system: CAKI-1 renal; test: NCI tumour cell line growth inhibition, 48 h
The following molecules are shown together with reported TGI values.

As a guide, the following entries are already answered.
* COC(=O)C1(Cc2ccc3c(c2)CCC3)Cc2ccccc2C1 | > 100 µM
* COc1cc2ccc1OCc1cccc(n1)COc1ccc(cc1OC)C=Nc1ccc(cc1)N=C2 | > 100 µM
* OCc1ccc2c(c1)CC1(Cc3ccc(/C=N/O)cc3C1)C2 (centres undefined) | > 89.7 µM

Would you kindly look at the next entry?
Recall the recorded TGI for O=C1CCCCN1CCCCC#Cc1cccc(C#Cc2cccnc2)c1 with CAKI-1 renal and state it.
> 100 µM

* * *

The following compounds are shown together with reported TGI values.
tested on: A549 NSCLC; experiment: NCI tumour cell line growth inhibition, 48 h

Give its TGI value. Item: Oc1ccccc1-c1nn(CNc2ccccc2Cl)c(=S)o1
> 100 µM

Please give the result for CSC1=Nc2ccccc2N=C(c2ccc(Cl)cc2)C1 too.
> 100 µM

COc1cnc2c(c1)C(=O)c1c-2n(CCCN2CCN(C)CC2)c(=O)c2cc([N+](=O)[O-])ccc12 ?
0.337 µM

* * *

Reported TGI values for the following molecules.
tested on: OVCAR-3 ovarian; assay: NCI tumour cell line growth inhibition, 48 h
Note: unit µM is implicit; provide only the numeric part.

* O=C1OCC2=C1C(c1ccccc1)c1cc3c(cc1N2CCO)OCO3 (stereo not given) | 2.6

Turning now to a further record.
// query TGI value for entry COc1ccc(C2c3cc4c(cc3OC(N3CCOCC3)C2C)OCO4)c(OC)c1OC (stereo not given)
45.6

* * *

test system: SN12C renal; assay: NCI tumour cell line growth inhibition, 48 h
quantity kind: TGI

Example cases with answers are listed next.
- NC(=S)NN/C=C(\C=Nc1ccccc1)[N+](=O)[O-]: > 100 µM
- CCOC(=O)/C(O)=C1\C(=O)N(C)C(=O)C1c1cccc(OC)c1 (stereo unspecified): > 100 µM
- O=C(O)[C@@H](Cc1ccc2ccccc2c1)NC(=O)n1c2ccccc2c2ccccc21: 17.7 µM

Query the reported TGI for SN12C renal; item: O=c1cc(N2CCCC2)[nH]c(=O)n1-c1ccccc1
> 100 µM

Check CC(=O)OCc1c(O)c2c(c(O)c1COC(C)=O)C(=O)C=CC2=O too.
24.2 µM

Record: COc1ccc2c(c1)/C(=C/c1cc(OC)c(OC)c(OC)c1)C(=O)N2
> 100 µM

Same for C/C(=N\NC(=O)CC#N)c1c(O)cc(C)oc1=O
> 100 µM

Then COC(=O)[C@H](Cc1ccccc1)NC(=O)CCCCCCC(=O)NO ?
> 100 µM

What do we get for CCCCCCCCCCCCCCCC[N+]1(C)CCOCC1 ?
8.92 µM

FYI, the data here is from PubChem BioAssay (NCI).
